Hi there, I'd appreciate the recorded RP-LC retention time for every entry that follows.
Assay comment: gradient 5% acetonitrile 3 min, to 50% in 2 min, to 85% in 15 min, held 3 min, 100 µL/min
Test conditions: column: Zorbax Extend-C18 2.1 x 50 mm; eluents: water / acetonitrile, 0.1% formic acid
Numbers only, in s.

Output RP-LC retention time of Cc1ccc(-n2nc(N3CCN(C(=O)Nc4ccccc4C)CC3)ccc2=O)cc1
787

Output RP-LC retention time of Cc1ccccc1NS(=O)(=O)c1ccc2c(c1)C(=O)N(C)c1ncccc1O2
892

Output RP-LC retention time of CCc1nc(-c2csc(S(=O)(=O)N3CCC(C(=O)Nc4cccc(C)n4)CC3)c2)no1
838

Output RP-LC retention time of COCc1cn(C2CN(C(=O)c3ccc(OC)cc3OC)C2)nn1
622

Output RP-LC retention time of CCOc1ccc(NC(=O)CSc2ccc(S(=O)(=O)c3ccccc3)nn2)cc1
906

Below are some compounds; for each one, tell me its RP-LC retention time.
1. Cc1noc(C2(NS(=O)(=O)c3ccc(C#N)cc3)CCCCC2)n1
2. CCCn1cc(S(=O)(=O)Nc2cccc(C)c2C)c2cccnc21
3. CCc1cc(=O)n(CC(=O)Nc2ccc(C(C)C)cc2)c(N2CCOCC2)n1

[773, 943, 895]

The reported measurements were obtained from the METLIN SMRT retention time set (Domingo-Almenara et al. 2019).
